Measurement notes: Intrinsic clearance in human liver microsomes
Assay type: ADME, Microsome
Condition: liver microsomes
Please provide measured microsomal CLint for the entries that follow.
Response body: numeric value in µL/min/mg, unit text excluded.

microsomal CLint reading for COc1ccccc1C1Cc2nccn2C1 (stereo not given) : 37

microsomal CLint reading for c1ccc(C2CCc3nc[nH]c3C2)cc1 (single isomer, unassigned; enantiomer 1) : 7

microsomal CLint reading for Clc1ccccc1C1CCc2nc[nH]c2C1 (stereo not given) : 10

microsomal CLint reading for Clc1cccc(C2CCc3nc[nH]c3C2)c1 (stereo not given) : 21

microsomal CLint reading for Clc1ccc(C2Cc3nccn3C2)cc1 (stereo not given) : 32

microsomal CLint reading for Clc1ccc(C2CCc3nc[nH]c3C2)cc1 (stereo not given) : 16

microsomal CLint reading for FC(F)Oc1ccccc1C1Cc2nccn2C1 (stereo not given) : 22

microsomal CLint reading for Clc1ccccc1C1Cc2nccn2C1 (stereo not given) : 18

microsomal CLint reading for COc1cccc(C2Cc3nccn3C2)c1 (stereo not given) : 23

microsomal CLint reading for COc1ccc(C2Cc3nccn3C2)cc1 (stereo not given) : 30

microsomal CLint reading for COc1ccc(C2CCc3nc[nH]c3C2)cc1 (stereo not given) : 16

Entry source: ChEMBL document CHEMBL1136872
